Ref: patent US8247211B2

Consider the following molecules; for each one, report its MIC Coagulase Negative Staphylococcus (GC 4548).
Tested on: Staphylococcus sp.
test details: In vitro antibacterial evaluation: minimum inhibitory concentration (MIC), broth dilution method
Type: cell-based
condition info: strain GC 4548
Numeric only. Scale: µg/mL

input: I would be grateful if you could share the reported MIC Coagulase Negative Staphylococcus (GC 4548) for CC(c1ccccc1)C1NC(=O)CNC(=O)C(CO)NC(=O)C(C(O)C2CNC(=N)N2C2OC(CO)C(O)C(O)C2O)NC(=O)C(C(O)C2CNC(=N)N2)NC(=O)C(Cc2ccc(OC3OC(COC(=O)C(c4ccccc4)c4ccccc4)C(OC4OC(CO)C(O)C(O)C4O)C(O)C3O)cc2)NC1=O (centres unmarked) [Example 96b] .
output: 0.5

input: Try this molecule next: N=C1NCC(C(O)C2NC(=O)C(Cc3ccc(OC4OC(CO)C(OC5OC6COC(Cc7ccccc7)OC6C(O)C5O)C(O)C4O)cc3)NC(=O)C(CC3CCCCC3)NC(=O)CNC(=O)C(CO)NC(=O)C(C(O)C3CNC(=N)N3C3OC(CO)C(O)C(O)C3O)NC2=O)N1 (centres unmarked)
output: 1

input: Try this molecule next: CCCCOC(=O)CCC1OCC2OC(OC3C(CO)OC(Oc4ccc(CC5NC(=O)C(C(C)c6ccccc6)NC(=O)CNC(=O)C(CO)NC(=O)C(C(O)C6CNC(=N)N6C6OC(CO)C(O)C(O)C6O)NC(=O)C(C(O)C6CNC(=N)N6)NC5=O)cc4)C(O)C3O)C(O)C(O)C2O1 (centres unmarked)
output: 1

---

Tested on: Enterococcus sp.
test details: In vitro antibacterial evaluation: minimum inhibitory concentration (MIC), broth dilution method
Format: cell-based
condition info: Enterococcus faecalis (GC 3059); broth dilution, 18 hours at 35° C.
Consider the following compounds; for each one, report its MIC Enterococcus faecalis (GC 3059).

input: I would be grateful if you could share the reported MIC Enterococcus faecalis (GC 3059) for CC(=O)Nc1cc(CC2NC(=O)C(C(C)c3ccccc3)NC(=O)CNC(=O)C(CO)NC(=O)C(C(O)C3CNC(=N)N3C3OC(CO)C(O)C(O)C3O)NC(=O)C(C(O)C3CNC(=N)N3)NC2=O)ccc1O (stereo not drawn) .
output: >64 µg/mL

input: Try this compound next: CC(c1ccccc1)C1NC(=O)CNC(=O)C(CO)NC(=O)C(C(O)C2CNC(=N)N2C2OC(CO)C(O)C(O)C2O)NC(=O)C(C(O)C2CNC(=N)N2)NC(=O)C(Cc2ccc(O)c(NC(=O)c3ccccc3)c2)NC1=O (stereo not drawn)
output: >64 µg/mL

input: Try this compound next: CC(c1ccccc1)C1NC(=O)CNC(=O)C(CO)NC(=O)C(C(O)C2CNC(=N)N2C2OC(CO)C(O)C(O)C2O)NC(=O)C(C(O)C2CNC(=N)N2)NC(=O)C(Cc2ccc(OC3OC(CO)C(OC4OC5COC6(OC5C(O)C4O)C4CC5CC(C4)CC6C5)C(O)C3O)cc2)NC1=O (stereo not drawn)
output: 1 to 2 µg/mL

---

System: Streptococcus sp.
test details: In vitro antibacterial evaluation: minimum inhibitory concentration (MIC), broth dilution method
Assay type: cell-based
condition info: Streptococcus pneumoniae (GC 4565); 18 hours at 35° C.
Numbered stars: 1 amine (or outer) side, 2 acyl side, 3 side chain; on linkers, the order of the positions; unused ones are H or OH. Square brackets hold non-standard residues; d marks the D form. Peptide text beside a SMILES is read from it. ξ: configuration not given here. X3 = CC1(C)OCC2OC(N3C(=N)NCC3C(O)C(N[*:1])C(=O)[*:2])C3OC(C)(C)OC3C2O1; ξEnduracididine(βξ-OH,4'ξ) = N=C1NCC(C(O)C(N)C(=O)O)N1; ξPhe(βξ-Me) = CC(c1ccccc1)C(N)C(=O)O
quantity kind: MIC Streptococcus pneumoniae (GC 4565)

input: I would be grateful if you could share the reported MIC Streptococcus pneumoniae (GC 4565) for CC(C1CCCCC1)C1NC(=O)CNC(=O)C(CO)NC(=O)C(C(O)C2CNC(=N)N2C2OC(CO)C(O)C(O)C2O)NC(=O)C(C(O)C2CNC(=N)N2)NC(=O)C(Cc2ccc(OC3OC(CO)C(OC4OC5COC6(OC5C(O)C4O)C4CC5CC(C4)CC6C5)C(O)C3O)cc2)NC1=O (stereo not drawn) [Example 221] .
output: <0.12 µg/mL

input: Try this compound next: CC(c1ccccc1)C1NC(=O)CNC(=O)C(CO)NC(=O)C(C(O)C2CNC(=N)N2C2OC(CO)C(O)C(O)C2O)NC(=O)C(C(O)C2CNC(=N)N2)NC(=O)C(Cc2ccc(OC3OC(CO)C(OC4OC5COC(c6cccc(Oc7cccc(C(F)(F)F)c7)c6)OC5C(O)C4O)C(O)C3O)cc2)NC1=O (stereo not drawn) [Example 184]
output: <0.06 µg/mL

input: Try this compound next: CC(c1ccccc1)C1NC(=O)CNC(=O)C(CO)NC(=O)C(C(O)C2CNC(=N)N2C2OC3COC(C)(C)OC3C3OC(C)(C)OC32)NC(=O)C(C(O)C2CNC(=N)N2)NC(=O)C(Cc2ccc(O)cc2)NC1=O (stereo not drawn) [Example 247] (cyclo(G[ξPhe(βξ-Me)]Y[ξEnduracididine(βξ-OH,4'ξ)][X3]S); configuration not given here)
output: >64 µg/mL

input: Try this compound next: CC(c1ccccc1)C1NC(=O)CNC(=O)C(CO)NC(=O)C(C(O)C2CNC(=N)N2C2OC(CO)C(O)C(O)C2O)NC(=O)C(C(O)C2CNC(=N)N2)NC(=O)C(Cc2ccc(OC3OC(CO)C(OC4OC(CO)C(OCc5ccc(OCc6ccccc6)cc5)C(O)C4O)C(O)C3O)cc2)NC1=O (stereo not drawn) [Example 231a]
output: <0.06 µg/mL

input: Try this compound next: CC(c1ccccc1)C1NC(=O)CNC(=O)C(CO)NC(=O)C(C(O)C2CNC(=N)N2C2OC(CO)C(O)C(O)C2O)NC(=O)C(C(O)C2CNC(=N)N2)NC(=O)C(Cc2ccc(OC3OC(CO)C(OC4OC5COC(c6ccc(C(=O)c7cc(I)c(I)c(I)c7)cc6)OC5C(O)C4O)C(O)C3O)cc2)NC1=O (stereo not drawn) [Example 187]
output: <0.12 µg/mL

input: Try this compound next: CC(C1CCCCC1)C1NC(=O)CNC(=O)C(CO)NC(=O)C(C(O)C2CNC(=N)N2C2OC(CO)C(O)C(O)C2O)NC(=O)C(C(O)C2CNC(=N)N2)NC(=O)C(Cc2ccc(OC3OC(CO)C(OC4OC5COC(c6ccccc6)OC5C(O)C4O)C(O)C3O)cc2)NC1=O (stereo not drawn) [Example 201]
output: <0.12 µg/mL
